Biological target: human GLP-1 receptor (human, UniProt P43220 24-463)
Assay: cell-based or functional assay
Starred links: 1 amine or outer side, 2 acyl side, 3 side chain; linkers in the order of their positions; H or OH if unused. Non-standard residues stand in square brackets, D forms with d. Groups on a side chain read outwards from the residue. No end group written: not given here. *: point of attachment. C18 diacid = O=C(O)CCCCCCCCCCCCCCCCC(=O)*; γGlu = O=C(O)[C@H](CCC(=O)[*:2])N[*:1]; AEEA = NCCOCCOCC(=O)O; Aib = CC(C)(N)C(=O)O
Observation type: EC50, CreLuc assay, 0.5% hP (nM)
The response must be a number in nM with no trailing unit.

Y[Aib]EGTFTSDYSI[Aib]LEKQAQ[Aib]AFVQWLIK([AEEA-AEEA-γGlu-γGlu-γGlu-γGlu-C18 diacid])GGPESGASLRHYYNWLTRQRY-NH2 (also: TFA salt) [Compound 58] | 0.05

Now look at this one.
Challenge: Would you mind telling me what EC50, CreLuc assay, 0.5% hP value was observed for Y[Aib]EGTFTSDYSI[Aib]LEKQAQ[Aib]EFVEWLIK([AEEA-AEEA-γGlu-γGlu-γGlu-C18 diacid])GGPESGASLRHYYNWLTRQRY-NH2 (also: TFA salt) [Compound 81] ?
Response given: 0.6
